B1: Tesmin, residues 368 to 403; numbered along this chain, Q9Y4I5 (parent)
chain: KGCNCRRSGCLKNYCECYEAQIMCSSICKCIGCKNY

# Variants of: B1
# Assay procedure: abundance fitness (aPCA) (normalised: wild type 0, dead -1); higher = more abundant; growth selection in yeast, the domain comes from the species named
# Applied conditions: Homo sapiens
# abundance fitness binned as A: < -0.5; B: ≥ -0.5 and < -0.1; C: ≥ -0.1

KGCNCRRSGCLKNMCECYEAQIMCSSICKCIGCKNY	C
KGCNCSRSGCLKNYCECYEAQIMCSSICKCIGCKNY	C
KGCNCRRSGCLKNYYECYEAQIMCSSICKCIGCKNY	A
KGCNCRRSGCLKNYCECVEAQIMCSSICKCIGCKNY	B
KGCNCRRSGCLKNYCECYEAQIMCSSICKCIGSKNY	B
KGCNCRRSGCLKNYCECYEAQIMCSSICWCIGCKNY	B
KGCNCRRSGCLKNYCECYEAQIMCSCICKCIGCKNY	A
KGCHCRRSGCLKNYCECYEAQIMCSSICKCIGCKNY	B

# credit: the Human Domainome abundance scans (Beltran et al. 2025)
